assay-system: PD-L1 His protein / PD-1 Fc protein (Homo sapiens)
Sequence (Q9NZQ7 19-238 limits assumed): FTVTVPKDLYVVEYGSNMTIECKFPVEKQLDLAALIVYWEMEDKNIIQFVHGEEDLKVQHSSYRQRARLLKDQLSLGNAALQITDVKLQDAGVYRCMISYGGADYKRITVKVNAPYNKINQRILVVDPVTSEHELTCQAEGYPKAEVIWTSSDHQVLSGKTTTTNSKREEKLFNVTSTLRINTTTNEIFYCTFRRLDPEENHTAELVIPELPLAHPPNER
assay-protocol: HTRF Assay (PD-1/PD-L1 interaction)
condition-info: PD-L1 His 6 nM, PD-1 Fc 6 nM
reported-metric: IC50

Some solved cases for reference:
COc1nc(-c2cccc(-c3cccc(-c4ccn5c(=O)c6c(nc5c4)OCCNC6)c3Cl)c2Cl)ccc1CNC[C@@H]1CCC(=O)N1 | 15 nM
COc1nc(-c2cccc(-c3cccc(-c4ccn5c(=O)c(CNC[C@@H]6CCC(=O)N6)cnc5c4)c3Cl)c2Cl)cc(F)c1CNC[C@@H]1CCC(=O)N1 | 3.9 nM
COc1nc(-c2cccc(-c3cccc(-c4ccn5c(=O)c(CN6CC[C@H](O)C6)cnc5c4)c3Cl)c2Cl)ccc1CNC[C@@H]1CCC(=O)N1 | 3.1 nM
COc1nc(-c2cccc(-c3cccc(-c4ccn5c(=O)c(CNC[C@@H]6CCC(=O)N6)cnc5c4)c3C)c2C)ccc1CNC[C@@H]1CCC(=O)N1 | 2.3 nM
COc1nc(-c2cccc(-c3cccc(-c4ccn5c(=O)c(CN(C)[C@H]6C[C@](C)(O)C6)cnc5c4)c3Cl)c2Cl)ccc1CNC[C@@H]1CCC(=O)N1 | 0.1 nM
COc1cc(-c2cccc(-c3cccc(-c4ccn5c(=O)c(CNC[C@@H]6CCC(=O)N6)cnc5c4)c3C)c2Cl)ncc1CNC[C@@H]1CCC(=O)N1 | 6.3 nM
CNC(=O)CCNCc1cnc2cc(-c3cccc(-c4cccc(-c5ccc(CNC[C@@H]6CCC(=O)N6)c(OC)n5)c4Cl)c3Cl)ccn2c1=O | 0.1 nM
COc1cc(-c2cccc(-c3cccc(-c4ccn5c(=O)c(CNC[C@@H]6CCC(=O)N6)cnc5c4)c3C)c2Cl)ccc1CNC[C@@H]1CCC(=O)N1 | 5.2 nM
COc1nc(-c2cccc(-c3cccc(-c4ccn5c(=O)c(C6=NCC(O)CN6)cnc5c4)c3Cl)c2Cl)ccc1CNC[C@@H]1CCC(=O)N1 (stereo partly drawn) | 0.1 nM
COc1nc(-c2cccc(-c3cccc(-c4ccn5c(=O)c(CN[C@H]6C[C@@](C)(O)C6)c(C)nc5c4)c3Cl)c2Cl)ccc1CNC[C@@H]1CCC(=O)N1 | 6.9 nM

Task item: I am curious: what IC50 value has been reported for COc1cc(-c2cccc(-c3cccc(-c4ccn5c(=O)c(CNC[C@@H]6CCC(=O)N6)cnc5c4)c3Cl)c2Cl)c(F)cc1CNC[C@@H]1CCC(=O)N1 ?
Reply: 4.9 nM

Task item: Now the compound COc1nc(-c2cccc(-c3cccc(-c4ccc5nc(C(=O)NCCN)cn5n4)c3Cl)c2Cl)ccc1CNC[C@@H]1CCC(=O)N1
Reply: 14 nM

----------
assay-system: PD-L1 His protein / PD-1 Fc protein (Homo sapiens)
assay-protocol: HTRF Assay (PD-1/PD-L1 interaction)
condition-info: PD-L1 His 6 nM, PD-1 Fc 6 nM
reported-metric: pIC50
The scale used: pIC50 is minus the common logarithm of the concentration in molar units.

COc1nc(-c2cccc(-c3cccc(-c4ccn5c(=O)c(CN(C)C[C@@H]6CCC(=O)N6)cnc5c4)c3C)c2Cl)ccc1CN1CC(O)C1 | 7.37
COC(=O)N(C)CCN(C)Cc1ccc(-c2cccc(-c3cccc(-c4ccn5c(=O)c(CN(C)CCN(C)C(=O)OC)cnc5c4)c3Cl)c2Cl)nc1OC | 5.52

Next up:
Task item: Given the entry Cc1c(COc2cc(OCc3cncc(C#N)c3)c(CNC[C@H]3CCC(=O)N3)cc2Cl)cccc1-c1cccc(-c2ccn3c(=O)c(CNC[C@H]4CCC(=O)N4)ccc3c2)c1C , report its measured pIC50.
Reply: 9.15

----------
Below, each entry is listed alongside its reported IC50.
assay-system: PD-L1 His protein / PD-1 Fc protein (Homo sapiens)
assay-protocol: HTRF Assay (PD-1/PD-L1 interaction)
condition-info: PD-L1 His 6 nM, PD-1 Fc 6 nM
Use nM as the unit, but write only the number.

COc1nc(-c2cccc(-c3cccc(-c4ccn5c(=O)c(CNC[C@H]6C[C@H]6CO)cnc5c4)c3Cl)c2Cl)ccc1CNC[C@@H]1CCC(=O)N1 (racemic) [Example 225] | 0.2
COc1nc(-c2cccc(-c3cccc(-c4ccn5c(=O)c(CNCC[C@@H]6CCC(=O)N6)cnc5c4)c3Cl)c2Cl)ccc1CNC[C@@H]1CCC(=O)N1 | 0.5
Cc1c(COc2cc(OCc3cncc(C#N)c3)c(CN[C@@](C)(CO)C(=O)O)cc2Cl)cccc1-c1cccc(-c2ccn3c(=O)c(CN[C@@](C)(CO)C(=O)O)cnc3c2)c1C | 0.2
COc1nc(-c2cccc(-c3cccc(-c4ccn5c(=O)c(CN6CCN7C(=O)CCC7C6)cnc5c4)c3Cl)c2Cl)ccc1CNC[C@@H]1CCC(=O)N1 (stereo partly drawn) | 3.1
COc1nc(-c2cccc(-c3cccc(-c4cc5ncc(CNC[C@H](C)O)cc5cn4)c3Cl)c2Cl)ccc1CNC[C@@H]1CCC(=O)N1 | 0.7

Moving on to the next compound.
Task item: // returns reported IC50 for input CSc1nc(-c2cccc(-c3cccc(-c4ccn5c(=O)c(CNC[C@@H]6CCC(=O)N6)cnc5c4)c3Cl)c2Cl)ccc1CNC[C@@H]1CCC(=O)N1
Reply: 1

----------
assay-system: PD-L1 His protein / PD-1 Fc protein (Homo sapiens)
assay-protocol: HTRF Assay (PD-1/PD-L1 interaction)
condition-info: PD-L1 His 6 nM, PD-1 Fc 6 nM
reported-metric: log10 of IC50 (log10 of the value in nM)
Please keep in mind that the values are log10 of IC50 expressed in nM.

COc1nc(-c2cccc(-c3cccc(-c4ccc5nc(CNC[C@@H](O)CC(=O)N(C)C)cn5n4)c3Cl)c2Cl)ccc1CNC[C@@H]1CCC(=O)N1 | -1.00
COc1nc(-c2cccc(-c3cccc(-c4ccn5c(=O)c(CNC[C@@H]6CCC(=O)N6)cnc5c4)c3Cl)c2Cl)ccc1CN1CC(C(=O)O)C1 | -0.52
COc1nc(-c2cccc(-c3cccc(-c4ccn5c(=O)c(CNC[C@H](C)O)c(C)nc5c4)c3Cl)c2Cl)ccc1CNC[C@@H]1CCC(=O)N1 | -1.00
COc1nc(-c2cccc(-c3cccc(-c4ccn5nc(CNC[C@@H]6CCC(=O)N6)cc5n4)c3Cl)c2Cl)ccc1CNC[C@@H]1CCC(=O)N1 | 1.00
COc1nc(-c2cccc(-c3cccc(-c4ccn5c(=O)c(CNC6(C(=O)O)CC6)cnc5c4)c3Cl)c2Cl)ccc1CNC[C@@H]1CCC(=O)N1 | -0.40

--- query ---
Task item: Any idea what log10 of IC50 was measured for COc1nc(-c2cccc(-c3cccc(-c4ccn5c(=O)c(CNC[C@@H]6CCC(=O)N6)cnc5c4)c3Cl)c2Cl)ccc1CN[C@H]1C[C@](C)(O)C1 ?
Reply: 0.23

----------
pIC50 values for the molecules below.
assay-system: PD-L1 His protein / PD-1 Fc protein (Homo sapiens)
assay-protocol: HTRF Assay (PD-1/PD-L1 interaction)
Format: binding
condition-info: PD-L1 His 6 nM, PD-1 Fc 6 nM
FYI, pIC50 means -log10 of a concentration in mol per litre.

Known results for molecules:
Cc1c(-c2ccn3c(=O)c(CNC[C@@H]4CCC(=O)N4)cnc3c2)cccc1-c1cccc(-c2ccc(CNC[C@@H]3CCC(=O)N3)c(F)n2)c1Cl [Example 57] | 8.51
COc1nc(-c2cc(F)cc(-c3cccc(-c4ccn5c(=O)c(CNC[C@@H]6CCC(=O)N6)cnc5c4)c3C)c2Cl)ccc1CNC[C@@H]1CCC(=O)N1 [Example 97] | 8.29
COc1nc(-c2cccc(-c3cccc(-c4ccn5c(=O)c(CNC[C@@H]6CCC(=O)N6)cnc5c4)c3C)c2C(F)(F)F)ccc1CNC[C@@H]1CCC(=O)N1 [Example 96] | 7.17

Task item: pIC50 lookup needed for COc1nc(-c2cccc(-c3cccc(-c4cnc5c(CNC[C@@H]6CCC(=O)N6)c(OC)nn5c4)c3Cl)c2Cl)ccc1CNC[C@@H]1CCC(=O)N1 [Example 379] , thanks.
Reply: 8.25

Task item: Again, but for COc1nc(-c2cccc(-c3cccc(-c4ccn5c(=O)c(CNCCCC(F)(F)C(F)(F)F)cnc5c4)c3Cl)c2Cl)ccc1CNC[C@@H]1CCC(=O)N1 [Example 223]
Reply: 8.00

Task item: Input COc1nc(-c2cccc(-c3cccc(-c4ccn5c(=O)c(CNC(C)(C)CC(=O)O)cnc5c4)c3Cl)c2Cl)ccc1CNC[C@@H]1CCC(=O)N1 [Example 154]
Reply: 9.40

----------
assay-system: PD-L1 His protein / PD-1 Fc protein (Homo sapiens)
assay-protocol: HTRF Assay (PD-1/PD-L1 interaction)
condition-info: PD-L1 His 6 nM, PD-1 Fc 6 nM
# maps each entry to its IC50
Entry rule: numbers only, all in nM.

CNc1nc(-c2cccc(-c3cccc(-c4ccn5c(=O)c(CNC[C@@H]6CCC(=O)N6)cnc5c4)c3C)c2Cl)ccc1CNC[C@@H]1CCC(=O)N1 | 6.3
COc1nc(-c2cccc(-c3cccc(-c4ccc5c(CN(C)CCO)cn(C)c5n4)c3Cl)c2Cl)ccc1CNC[C@@H]1CCC(=O)N1 | 5.2
COc1nc(-c2cccc(-c3cccc(-c4ccn5c(=O)c(CN(C)CC(=O)O)cnc5c4)c3Cl)c2Cl)ccc1CNC[C@@H]1CCC(=O)N1 | 0.1
COc1cc(-c2cccc(-c3cccc(-c4ccc(CNC[C@@H]5CCC(=O)N5)c(OC)n4)c3Cl)c2Cl)cc2c1CN(C[C@H](C)O)CC2 | 23
COc1nc(-c2cccc(-c3cccc(-c4ccc5c(c4F)CN(C[C@@H]4CCC(=O)N4)CC5)c3Cl)c2Cl)ccc1CNC[C@@H]1CCC(=O)N1 | 140
COc1nc(-c2cccc(-c3cccc(-c4ccn5c(=O)c(CNC[C@@H]6CCC(=O)N6)cnc5c4)c3Cl)c2Cl)ccc1CN[C@H]1C[C@H](O)C1 | 2

Alright, here's another compound for you.
Task item: Sample COc1nc(-c2cccc(-c3cccc(-c4ccn5c(=O)c(CN6CC(C(=O)O)C6)cnc5c4)c3Cl)c2Cl)cnc1CNC[C@@H]1CCC(=O)N1 — what was its IC50?
Reply: 0.4

Reference source: patent US20230143612A1
